Kindly supply the reported pKi values for the records listed here.
- target-desc: thrombin (Homo sapiens, UniProt P00734)
- protocol-notes: Chromogenic kinetic enzyme assay of thrombin
- Format: biochemical
- experimental-context: Table 6.2; headed Fluorogenic Assay; read-out: Thrombin Ki
In simple prose, pKi is minus the logarithm base ten of a concentration in moles per litre.

// query For CC(=O)N[C@@H](CO)C(=O)N[C@@H](CCCCN)C(=O)N[C@@H](CC(C)C)C(=O)N[C@@H](CCCNC(=N)N)C(=O)c1nc2ccc(C(=O)NC3CCNCC3)cc2s1 [Compound 7140] , what is its reported pKi?
// result 5.53

// query For CC(C)C[C@H](NC(=O)[C@@H](N)Cc1c[nH]c2ccccc12)C(=O)N[C@@H](CCCNC(=N)N)C(=O)c1nc2ccccc2s1 [Compound 7170, H-WLR-kbt] , what is its reported pKi?
// result 6.34

// query For CC(C)C[C@H](NC(=O)[C@H](CCCNC(=N)N)NC(=O)[C@@H](N)Cc1c[nH]c2ccccc12)C(=O)N[C@@H](CCCNC(=N)N)C(=O)c1nc2ccccc2s1 [Compound 7117, H-WRLR(SEQ ID NO: 9)-Kbt] , what is its reported pKi?
// result 5.31
